Origin of the recorded values: PubChem BioAssay (NCI)

Catalogue of growth readings, one per entry.
System: KM12 colon
assayText: NCI-60 one-dose screen, 48 h (100 = growth as untreated, 0 = no growth, -100 = all killed)
measurementContext: 10 µM unless noted
The panel holds about 83,000 compounds, 20% with a hit somewhere; the sample as a whole holds those more often.
Hi! Could you send only the number? It should be in %, unit omitted.

CCOc1ccc(/C=C/C(=O)c2cccc(OCCCOc3cccc(C(=O)/C=C/c4ccc(OCC)cc4)c3)c2)cc1; 93
Cc1ccc(-c2nc(SCC(=O)N3CCN(c4cc5c(cc4F)c(=O)c(C(=O)O)cn5C4CC4)CC3)nc(Cl)c2C#N)cc1; 102
CC(C)NS(=O)(=O)/N=C1\NC(=O)NC1=C(Cl)Cl; 85.4
O=CCCCOCc1ccccc1; 102
CC1(C)N=C(N)N=C(N)N1c1ccc(S(=O)(=O)Nc2nccs2)cc1; 101

Input: What growth value was documented for this compound, O=C(O)CCCCCCCCCCN1C(=O)/C(=C2/C(=O)N(CC(=O)O)c3ccc(Br)cc32)SC1=S ?
Output: 40.2

Input: Please look up its growth: COC(=O)[C@]1(C)CCC[C@]2(C)[C@H]3C[C@@H]4[C@H]5[C@@H]6CC/C(=N\OCC/C(N)=N/O)[C@H]5[C@@]3(CC[C@H]21)CC4(C(C)C)O6
Output: 76

Input: Requested read-out: growth. Entry: COc1ccc(C(=O)Nc2ncc(Cc3ccc(Cl)cc3)s2)cc1
Output: 5.8

---

Test system: SF-539 CNS
assayText: NCI-60 one-dose screen, 48 h (100 = growth as untreated, 0 = no growth, -100 = all killed)
measurementContext: 10 µM unless noted
This is part of a sample that, as a whole, favours compounds with a hit. Of some 83,000 tested, about 20% had one in any assay.
growth vs 30%: less than gives Criterion met; not less than gives Criterion not met.

These solved cases illustrate the format of a correct answer.
CSc1nc2ccc(C)cc2cc1/C=C1/C=C(c2ccccc2)NC1=O; Criterion not met
C=CC(CC(c1ccccc1)(c1ccccc1)c1ccccc1)N(CC)CC (stereo unspecified); Criterion not met

Input: Say whether its growth is strictly beneath 30%. Entry: Cc1[nH]n(-c2cccc(Cl)c2)c(=O)c1/C=C1\C=c2ccccc2=CC1=O
Output: Criterion not met

Input: Is the reported growth for CC1(/C=C/c2ccc(-c3ccccc3)cc2)CCn2cnc3ncnc(c32)N1O (stereo unspecified) strictly below 30%?
Output: Criterion met

Input: Here's an entry: CC(=O)Nc1sc2c(c1-c1nc3ccccc3s1)CNC2 . Is its growth below 30%?
Output: Criterion met

Input: API: query returns whether the compound falls strictly under 30% in growth. Query: O=c1cc(CNc2cc(F)cc(F)c2)c2ccc(I)cc2[nH]1
Output: Criterion met

Input: API: query returns whether the compound falls strictly under 30% in growth. Query: Cc1nc2ccccc2c(/C=C/c2ccc(F)cc2)c1C(=O)/C=C/c1ccccc1
Output: Criterion met

Input: For this compound, is growth lower than 30%? CCCCCc1ccc(S(=O)(=O)Nc2cc(-c3csc(NC(C)=O)n3)ccc2N2CCN(C)CC2)cc1
Output: Criterion not met

Input: State whether 30% exceeds growth recorded for CCn1cc(C(=O)N/N=C/c2ccccc2)c(=O)c2cc(F)c(N3CCNC(C)C3)c(F)c21 (stereo unspecified) .
Output: Criterion met

Input: growth under 30%? Item: COCCn1cc(-c2nc(-c3cn(CCOC)c4ncccc34)cs2)c2cc(F)ccc21
Output: Criterion not met

Input: Problem: For the compound CCOC(=O)C1=C(CCl)N(C)C(=O)NC1c1ccc2c(c1)OCO2 (stereo unspecified) , is growth under 30%?
Output: Criterion not met

Input: Dear colleague, could you confirm whether growth of O=C(Nc1cccnc1Nc1ccc(Cl)cc1)c1cn(Cc2cccc(Oc3ccccc3)c2)nn1 falls below 30%? Thanks.
Output: Criterion not met

Input: Just wondering, is growth of COc1ccc(NC(=O)c2ccc(Nc3ncnc4c3cnn4-c3cccc(F)c3)cc2)cc1 below 30%?
Output: Criterion not met

Input: Could you please tell me whether growth recorded for Cc1cc(O)c(=O)cc2c1C[C@H]1CC(C)(C)/C=C/C[C@]3(C)Oc4cc(=O)c(O)cc(C)c4C[C@H]3C[C@H](O)[C@@]1(C)O2 is less than 30%?
Output: Criterion met

Input: State whether 30% exceeds growth recorded for CCN(CC)C(=O)C1=C(C)NC(=O)NC1c1ccc2c(c1)OCO2 (stereo unspecified) .
Output: Criterion not met

Input: Below 30% on growth? Entry O=c1cc(-c2ccccc2)nc(SCc2nc3cc(Cl)c(Cl)cc3[nH]2)[nH]1
Output: Criterion not met

---

Recorded growth for the following molecules
Tested on: SNB-19 CNS
assayText: NCI-60 one-dose screen, 48 h (100 = growth as untreated, 0 = no growth, -100 = all killed)
measurementContext: 10 µM unless noted
The panel holds about 83,000 compounds, 20% with a hit somewhere; the sample as a whole holds those more often. Active and inactive are the calls of the source. Rule for the calls: active = growth percent below 10; inactive = the rest.

Input: Which growth is reported for this molecule? CNC(=O)Nc1ccc(-c2ccc3ncnc(Nc4cccc(Cl)c4)c3c2)cc1
Output: 69.6% (inactive)

---

Tested on: HT29 colon
assayText: NCI-60 one-dose screen, 48 h (100 = growth as untreated, 0 = no growth, -100 = all killed)
measurementContext: 10 µM unless noted
Compounds without any hit were thinned out: in the full panel of roughly 83,000, 20% have a hit.
experimentalEndpoint: growth (%)
Report as a plain number; the unit % is understood.

Solved entries (count: 4):
C=C[C@@]1(C)CC(=O)[C@@H](C(C)(C)c2cn(C)c3ccc(Br)cc23)C[C@@H]1O[Si](C)(C)C(C)(C)C; 103
COc1ccc2c(c1)oc1c(C)c3c(c(C)c12)C(=O)N(CCOS(C)(=O)=O)C3=O; 101
CN(C)c1ccc([C@@H](C(=O)Nc2cccc([N+](=O)[O-])c2)N(C(=O)c2cc3ccccc3[nH]2)c2cccc([N+](=O)[O-])c2)cc1; 101
N=C(N)c1ccc(OCCSCCOc2ccc(C(=N)N)cc2)cc1; 85.4

Input: Please look up its growth: C=C(C)[C@@H]1CC[C@]2(C(=O)N3CCNCC3)CC[C@]3(C)[C@H](CC[C@@H]4[C@@](C)(CCC(=O)N5CCNCC5)[C@H](C(=C)C)CC[C@]43C)[C@@H]12
Output: 26.1

---

System: OVCAR-5 ovarian
assayText: NCI-60 one-dose screen, 48 h (100 = growth as untreated, 0 = no growth, -100 = all killed)
measurementContext: 10 µM unless noted
Compounds without any hit were thinned out: in the full panel of roughly 83,000, 20% have a hit.
The threshold is 90%. Values of growth beneath it are tagged Condition met; values meeting or exceeding it are tagged Condition not met.

Solved entries (count: 3):
O=C(Nc1cccnc1Nc1ccc(Cl)cc1)c1cn(Cc2cccc(Oc3ccccc3)c2)nn1; Condition not met
CCOc1ccc(NC(=O)Nc2ccc(OCC)cc2)cc1; Condition not met
O=C(Nc1cc(Cl)cc(Cl)c1)Oc1c(Cl)c(Cl)c(Cl)c(Cl)c1Cl; Condition met

Input: Given Cc1ccc(S(=O)(=O)OCC#CCOS(=O)(=O)c2ccc(C)cc2)cc1 , is recorded growth strictly lower than 90%?
Output: Condition not met

Input: A record lists COc1ccc2c(O)c(/C=C3\N=Nc4ncccc43)oc2c1C[C@@H]1CCNC[C@H]1F . Is its growth below 90%?
Output: Condition met

Input: In the record for Cc1[nH]c(C(=O)Nc2ccccc2OC2CCN(CCN3CCOCC3)CC2)c(Cl)c1Cl , is growth less than 90%?
Output: Condition not met

---

System: UACC-257 melanoma
assayText: NCI-60 one-dose screen, 48 h (100 = growth as untreated, 0 = no growth, -100 = all killed)
measurementContext: 10 µM unless noted
The panel holds about 83,000 compounds, 20% with a hit somewhere; the sample as a whole holds those more often.
// NB: equality with 90% counts as Condition not met; only growth strictly below is Condition met

Input: For COc1cc(/C=C/C(=O)N2CCN(C(=O)c3cc(OC)c(OC)c(OC)c3)CC2)ccc1OCCCOc1cc2c(cc1OC)C(=O)N1CCC[C@H]1C=N2 , is the recorded growth below the cut-off of 90%?
Output: Condition met

Input: Is 90% strictly greater than the molecule's reported growth? molecule: Clc1ccc2nn3c4ccccc4c(OCCN4CCOCC4)nc3c2c1
Output: Condition not met

Input: Lab note: confirm whether the reported growth for this molecule is below 90%, equality not counting. molecule: Nc1nc(C(=O)N/N=C/c2ccc(F)cc2)nn1-c1ccc(S(N)(=O)=O)cc1
Output: Condition not met

---

Tested on: DU-145 prostate
assayText: NCI-60 one-dose screen, 48 h (100 = growth as untreated, 0 = no growth, -100 = all killed)
measurementContext: 10 µM unless noted
This is part of a sample that, as a whole, favours compounds with a hit. Of some 83,000 tested, about 20% had one in any assay.
Measured growth accompanies every entry in the list below.
Just the number please, in %, no unit attached.

// worked examples, growth included
Nc1ncnc2c1N=C(c1ccc(F)cc1)CC(c1cccc(Nc3ccnc4cc(Cl)ccc34)c1)N2 (configuration not stated); 85.9
c1cc(OCCCCCOc2cccc(-c3nc4ccccc4[nH]3)c2)cc(-c2nc3ccccc3[nH]2)c1; 33.2
COc1ccc(Cl)cc1Nc1nc(C(F)(F)F)ccc1C(=O)N/N=C/c1ccc([N+](=O)[O-])cc1; 12.8

Input: So what does the record say about growth for Cc1sc2nc(NCCN)[nH]c(=O)c2c1C ?
Output: 96.7

Input: Record request: growth value, item O=[N+]([O-])c1ccccc1Sc1ccccc1[N+](=O)[O-]
Output: 104

Input: Need growth of CCOC(=O)C1=C(CC(O)c2ccc(OC)cc2OC)NC(=O)NC1c1ccccc1 (configuration not stated) , thanks.
Output: 110

Input: Suppose we examine the molecule COC(=O)c1c(C)nc(C)c2c1C(=O)C=C(NCc1ccccc1)C2=O ; what growth value has been reported?
Output: 95.8

Input: Need growth of Cc1cc(C(=O)CCCC(=O)c2cc(C)c(O)c(C)c2)cc(C)c1O , thanks.
Output: 109

Input: Name the recorded growth for COc1cc(/C=C/C(=O)c2cccc(-n3cc(-c4ccc(Cl)cc4)[nH]c3=O)c2)ccc1O .
Output: 78.1

Input: Reported growth for COc1ccc(C/C(C)=C(\c2ccc(Cl)cc2)c2ccc(OCCCN(C)C)cc2)cc1 : what is it?
Output: 102

Input: Which growth value is on record for CCCCCc1ccc(S(=O)(=O)Nc2cc(-c3csc(NC(C)=O)n3)ccc2N2CCN(C)CC2)cc1 ?
Output: 75.8

Input: Looking for the measured growth of O=C(c1cccc(N2CCOCC2)n1)c1c[nH]c2ccccc12 , can you help?
Output: 99.8
